Form field: kinase still bound, per cent of control (one value per entry).
assay.system: SRMS (human)
procedure.summary: KINOMEscan competition binding
assay.conditions: compound 10.0 µM

>  <chemical.structure>
CCN1CCN(Cc2ccc(Nc3ncc4c(n3)N(C)c3ccccc3C(=O)N4C)cc2C(F)(F)F)CC1

>  <endpoint.value>
54%

$$$$
>  <chemical.structure>
CCCS(=O)(=O)Nc1ccc(F)c(C(=O)c2c[nH]c3ncc(-c4ccc(Cl)cc4)cc23)c1F

>  <endpoint.value>
0.05%

$$$$
>  <chemical.structure>
C[C@@H](Oc1cc(-n2cnc3ccc(CN4CCN(C)CC4)cc32)sc1C(N)=O)c1ccccc1C(F)(F)F

>  <endpoint.value>
74%

$$$$

Query string: Any idea what kinase still bound, per cent of control was measured for C=CC(=O)Nc1cccc(Oc2nc(Nc3ccc(N4CCN(C)CC4)cc3OC)ncc2Cl)c1 ?
Result string: 100%

Query string: Look up kinase still bound, per cent of control: Cc1ccc2nc(NCCN)c3ncc(C)n3c2c1
Result string: 90%

Query string: Which value of kinase still bound, per cent of control has been reported for C=CC(=O)Nc1cc(NC(=O)c2ccc(C)c(NC(=O)c3ccno3)c2)cc(C(F)(F)F)c1 in the records?
Result string: 77%

Query string: What measured kinase still bound, per cent of control goes with Cc1ccc(C(=O)Nc2cccc(C(F)(F)F)c2)cc1Nc1cncc(C(N)=O)c1 ?
Result string: 100%

* * *

assay.system: ITK (human)
procedure.summary: KINOMEscan competition binding
assay.conditions: compound 10.0 µM
assay.metric: kinase still bound, per cent of control (%)
State the answer as a number, implicitly in %.

Guide cases for kinase still bound, per cent of control, answers given:
>  <compound>
Cn1c(=O)n(-c2ccc(C(C)(C)C#N)cc2)c2c3cc(-c4cnc5ccccc5c4)ccc3ncc21

>  <readout.units>
%

>  <kinase still bound, per cent of control>
100

$$$$
>  <compound>
CC[C@@H]1C(=O)N(C)c2cnc(Nc3ccc(C(=O)NC4CCN(C)CC4)cc3OC)nc2N1C1CCCC1

>  <readout.units>
%

>  <kinase still bound, per cent of control>
100

$$$$
>  <compound>
COc1cc(C(=O)NC2CCN(C)CC2)ccc1Nc1ncc2c(n1)N(C1CCCC1)C(C)CC(=O)N2C (stereo not drawn)

>  <readout.units>
%

>  <kinase still bound, per cent of control>
100

$$$$

Query string: Find the recorded kinase still bound, per cent of control belonging to O=C(NC1CC1)c1cccc(-c2ccc3c(NC(=O)C4CC4)n[nH]c3c2)c1 and report it.
Result string: 100

Query string: I have this compound here, C[C@@H](Oc1cc(-n2cnc3ccc(CN4CCN(C)CC4)cc32)sc1C(N)=O)c1ccccc1C(F)(F)F , and I need its recorded kinase still bound, per cent of control.
Result string: 89

Query string: Quick check: kinase still bound, per cent of control of Nc1ccc(-c2ccc3ncc4ccc(=O)n(-c5cccc(C(F)(F)F)c5)c4c3c2)cn1 ?
Result string: 100

Query string: Entry CCN1CCN(Cc2ccc(Nc3ncc4c(n3)N(C)c3ccccc3C(=O)N4C)cc2C(F)(F)F)CC1 has what kinase still bound, per cent of control?
Result string: 100

Query string: Data request, read-out kinase still bound, per cent of control, for COc1cc(C(=O)NC2CCN(C)CC2)ccc1Nc1ncc2c(n1)N(C1CCCC1)CCC(=O)N2C(C)C
Result string: 100

Source: the kinase profiling compilation of Christmann-Franck et al. (2016)
